assayed-system: CD40 immobilized on microassay plates (UniProt P25942 21-193, limits assumed)
Sequence (P25942 21-193 limits assumed): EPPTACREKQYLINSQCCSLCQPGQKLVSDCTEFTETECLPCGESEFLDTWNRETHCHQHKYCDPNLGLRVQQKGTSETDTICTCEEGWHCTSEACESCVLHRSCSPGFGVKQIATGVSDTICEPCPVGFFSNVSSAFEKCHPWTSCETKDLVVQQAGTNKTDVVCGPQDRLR
assay-details: serially diluted antibody on CD40 immobilized on microassay plates
Protocol: Antibodies constructed using these variant light and heavy chain variable domains were analyzed for binding activity. Each antibody was diluted to equivalent concentrations, and then serially diluted. The diluted antibodies were assayed for binding to CD40 immobilized on microassay plates.
quantity-name: Binding Data 1

1. SGN-14 (parent murine antibody, donor) (antibody, V domains shown, Murine monoclonal antibody; also called S2C6; murine CD40 donor antibody) VH: EVQLQQSGPDLVKPGASVKISCKASGYSFTGYYIHWVKQSHGKSLEWIGRVIPNNGGTSYNQKFKGKAILTVDKSSSTAYMELRSLTSEDSAVYYCAREGIYWWGHGTTLTVS VL: DVVVTQTPLSLPVSLGAQASISCRSSQSLVHSNGNTFLHWYLQKPGQSPKLLIYTVSNRFSGVPDRFSGSGSGTDFTLKISRVEAEDLGVYFCSQTTHVPWTFGGGTKLEIQR
1
2. hu sgn-0 (antibody, V domains shown, also called SGN-40; Template) VH: EVQLVESGGGLVQPGGSLRLSCAASGYSFTGYYIHWVRQAPGKGLEWVARVIPNNGGTSYNQKFKGRFTISRDNSKNTLYLQMNSLRAEDTAVYYCAREGIYWWGQGTLVTVS VL: DIQMTQSPSSLSASVGDRVTITCRSSQSLVHSNGNTFLHWYQQKPGKAPKLLIYTVSNRFSGVPSRFSGSGSGTDFTLTISSLQPEDFATYYCSQTTHVPWTFGQGTKVEIKR
75.3
3. hu sgn-2 (antibody, V domains shown) VH: EVQLVESGGGLVQPGGSLRLSCAASGYSFTGYYIHWVRQAPGKGLEWVARVIPNNGGTSYNQKFKGRFTISRDKSKNTLYLQMNSLRAEDTAVYYCAREGIYWWGQGTLVTVS VL: DIQMTQSPSSLSASVGDRVTITCRSSQSLVHSNGNTFLHWYQQKPGKAPKLLIYTVSNRFSGVPSRFSGSGSGTDFTLTISSLQPEDFATYYCSQTTHVPWTFGQGTKVEIKR
471
4. hu sgn-1 (antibody, V domains shown) VH: EVQLVESGGGLVQPGGSLRLSCAASGYSFTGYYIHWVRQAPGKGLEWVARVIPNNGGTSYNQKFKGRFTISVDNSKNTLYLQMNSLRAEDTAVYYCAREGIYWWGQGTLVTVS VL: DIQMTQSPSSLSASVGDRVTITCRSSQSLVHSNGNTFLHWYQQKPGKAPKLLIYTVSNRFSGVPSRFSGSGSGTDFTLTISSLQPEDFATYYCSQTTHVPWTFGQGTKVEIKR
23.6
